Experiment: Solubility of Compound 1.HCl measured gravimetrically in solvents/solvent mixtures
Assay type: physicochemical
Conditions: organic solvent or mixture, thermodynamic from solid; EtOAc, 15° C., slurried 48 h, gravimetric
observed-property: solubility at 48 h (µg/mL)
Kindly provide the numeric value in µg/mL only, without the unit symbol.

Request: Need solubility at 48 h, item C[C@@H](NC(=O)N1C(=O)[C@H](Cc2ccnc(N)c2)[C@H]1C(=O)O)C1CCCCC1.Cl [Compound 1.HCl]
Result: 200

---

Experiment: Solubility of Compound 1.HCl measured gravimetrically in solvents/solvent mixtures
Type: physicochemical
Settings: organic solvent or mixture, thermodynamic from solid; IPA, 45° C., slurried 48 h, gravimetric
observed-property: solubility at 48 h (mg/mL)
Kindly provide the numeric value in mg/mL only, without the unit symbol.

Request: Need solubility at 48 h, item C[C@@H](NC(=O)N1C(=O)[C@H](Cc2ccnc(N)c2)[C@H]1C(=O)O)C1CCCCC1.Cl [Compound 1.HCl]
Result: 43
